Cited source for all entries: the supplement of paper PMC10338343

Would you mind telling me the reported pre-steady-state target cleavage rate of each entry?
Tested on: EfPiwi piRISC loaded with L1MC piRNA (26 nt)
Test: pre-steady-state target cleavage rate (min^-1); auxiliary factor: 500 nM Ephydatia muelleri Gtsf1; guide: L1MC piRNA 5'p-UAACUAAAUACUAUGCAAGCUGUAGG; MIWI and MILI are mouse PIWI proteins and EfPiwi is from a freshwater sponge; tags in brackets are library labels; higher = faster piRNA-guided slicing of the target

See these solved cases before continuing.
UCCUCCUACAGCUUGCAUCGUAUUUAGUUA; 0.0492
UCCUGCUACAGCUUGCAAAGUAAUUAGUUA; 0.00362
UCCUGGAUGUCGAACCAUAGUAAUUAGUUA; < 0.0001
UCCUGGAACAGCUUGCAUAGUAAUUAGAUA; 0.00318

Batch of 8 sequences: report pre-steady-state target cleavage rate for each.
1. UCCUGGUACAGCCUUGCAUAGUAUUUAGUUA
2. UCCUGGAUGUGCUUGCAUAGUAUUGAGUUA
3. UCCUCCUACAGCUUGCAUAGUCAUUUAGUUA
4. UCCUGGAUGUCGUUGCAUAGUACUUAGUUA
5. UCCUGGUAGACCUUGCAUAGUAUUUAGUUA
6. UCCUCCUACAGCUUGCAUAGUAUUUACUAA
7. UCCUGCUACAGCUAGCAUAGUAUUUUGUUA
8. UCCUGGAUGAGCUUGCAUAGUAUUUAGUGA

[0.0209, 0.00273, 0.00268, 0.00365, 0.0182, 0.00569, 0.0057, 0.00681]

Record pre-steady-state target cleavage rate per entry; entries follow.
1. UCCUGGUACUGCUUGCAUAGUAUAUAGUUA
2. UCCUGCUACACCUUGCAUACUAUUUAGUUA
3. UCCUGGUACAGCUUGCAAAGUAUUUUGUUA
4. UCCUGCUACAGCUUGCAUAUGUAUUUAGUUA
5. UCCUCGUACAGCUUGCAUAGUAUUAAGUUA

[0.01, 0.00403, 0.00296, 0.00294, 0.00547]

Report pre-steady-state target cleavage rate for each item below.
1. UCCUGCUACAGCUUGCAUAGAAUUUUGUUA
2. UCCUGGUACUGCUUGCAUAGUAUUUACAAA
3. UCCUGGAUGACCUUGGAUAGUAUUUAGUUA
4. UCCUGGUAAGCUUGCAUAGUAUUUAGUUA
5. UCCUGGUACAGCAUGCAUACUAUUUAGUUA
6. UCCUCCUACAGCUUGCAUAUUAUUUAGUUA
7. UCCUGGAACAGCUUGCAUACUAUUAAGUUA

1. 0.00457
2. 0.00278
3. 0.00325
4. 0.0168
5. 0.00483
6. 0.0783
7. 0.00246

For every item in the list below, what is its measured pre-steady-state target cleavage rate?
1. UCCUGGUACAGCUUGAAUAGUAUUUAGUUA
2. UCCUGGAUGUGCUUGCAUAGCAUUUAGUUA
3. UCCUGCUACAGCUUGCAUAGUAUUAGUUA

0.0053
0.00505
0.00404

Give reported pre-steady-state target cleavage rate value for `UCCUGGAUGAGCUUGACAUAGUAUUUAGUUA` 0.00729
